- experimental-system: TGEV M^pro (Porcine transmissible gastroenteritis coronavirus)
- Sequence (P0C6Y5 2879-3180): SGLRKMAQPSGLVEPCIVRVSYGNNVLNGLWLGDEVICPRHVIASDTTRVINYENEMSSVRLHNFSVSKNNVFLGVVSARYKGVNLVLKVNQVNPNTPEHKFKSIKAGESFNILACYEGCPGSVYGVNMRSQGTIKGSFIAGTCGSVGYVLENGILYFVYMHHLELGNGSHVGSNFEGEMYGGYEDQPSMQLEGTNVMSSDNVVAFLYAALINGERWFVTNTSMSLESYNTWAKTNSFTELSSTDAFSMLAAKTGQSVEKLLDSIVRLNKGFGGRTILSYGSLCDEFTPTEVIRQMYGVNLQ
measured-property: pKi
Remember the convention: pKi equals -log10 of concentration in molar.

Q) Request body: readout pKi, system TGEV M^pro (Porcine transmissible gastroenteritis coronavirus), query `CCOC(=O)/C=C/[C@H](C[C@@H]1CCNC1=O)NC(=O)[C@H](CC(C)C)NC(=O)[C@@H](NC(=O)[C@H](C)NC(=O)c1cc(C)on1)C(C)C` . Return the value.
A) 5.49

###

- experimental-system: HCoV-229E M^pro (Human coronavirus 229E)
- Construct: HCoV-229E M^pro (15 mg/ml; two amino acids deleted at C-terminal); made in house
- Sequence (P0C6X1 2966-3265 limits assumed): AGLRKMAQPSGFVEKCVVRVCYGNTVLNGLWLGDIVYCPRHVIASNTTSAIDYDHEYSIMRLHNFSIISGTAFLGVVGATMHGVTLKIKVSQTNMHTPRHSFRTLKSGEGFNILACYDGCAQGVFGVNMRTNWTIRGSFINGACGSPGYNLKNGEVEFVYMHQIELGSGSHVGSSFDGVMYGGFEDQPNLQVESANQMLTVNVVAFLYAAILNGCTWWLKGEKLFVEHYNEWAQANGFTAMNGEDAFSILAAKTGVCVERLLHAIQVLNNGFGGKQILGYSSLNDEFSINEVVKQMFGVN
- experiment-notes: biochemical
Attribute: pKi
Remember the convention: pKi equals -log10 of concentration in molar.

molecule: Cc1cc(C(=O)N[C@@H](C)C(=O)N[C@H](C(=O)N[C@@H](CC(C)C)C(=O)N[C@H](/C=C/C(=O)OCc2ccccc2)C[C@@H]2CCNC2=O)C(C)C)no1
experimental-system: HCoV-229E M^pro (Human coronavirus 229E)
readout-number: 5.78

In the following, a different compound is considered.
Q) # lookup: pKi of `CCOC(=O)/C=C/[C@H](C[C@@H]1CCNC1=O)NC(=O)[C@H](CC(C)C)NC(=O)[C@@H](NC(=O)[C@H](C)NC(=O)c1cc(C)on1)C(C)C`
A) 5.95
